Origin of measurements: patent US11196057B2

assay: pKa values of different proton sources (protic additives); conditions: water
Parameter Measured: pKa

1. CCCCN=C(N(C)C)N(C)C 13.6
2. OCC(F)(F)F 12.5
